This collection of values is drawn from PubChem BioAssay AID739.

# assay info: phenotypic screen on post-Golgi transport, primary screen (AID 739);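 further: yeast cells grown in 1536-well plates; yeast grown about 18 h at 30C before absorbance read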
# experimental context: post-Golgi transport phenotypic cell assay; at 10 µM; stronger effect = higher value
The whole screen tested about 98,000 compounds, of which about 880 (0.9%) were called active. Only a selection was taken, and actives are over-represented in it overall.
property measured: inhibition (%)
One number for each entry, in %.

Some compounds with recorded inhibition:
O=C(NCc1ccccc1)C1CCCN(S(=O)(=O)c2cccs2)C1 (configuration not stated); 0
Cc1cc(N/C=C\C(=O)c2ccc(Cl)c(Cl)c2)no1; -4.69
O=C(Nc1nnc(-c2ccc(Cl)cc2)o1)c1ccccc1Br; 78.2
CC1CC2=C(CC1/C=N/NC(N)=S)C(C)(C)CCC2 (configuration not stated); 100
Fc1ccc(N2N=C(c3cccs3)CC2c2ccco2)c(F)c1 (configuration not stated); 8.56
COCCNC(=O)COc1ccc(C)c(C)c1; 4.17
COc1ccc(C(=O)Nc2ncc3c(n2)-c2ccccc2CC3)cc1; 16.5
CCN(CC(=O)NC1CCS(=O)(=O)C1)c1nc(-c2cccnc2)nc2ccccc12 (configuration not stated); 3.37
Cc1ccc(SC(=O)COc2ccc(C)c(C)c2)cc1; 35.3
COc1ccc(NC(=O)Nc2ccc3nc(C)c(C)nc3c2)cc1; -7.69

# batch size: 2; output inhibition per entry
1. O=c1c2ccccc2oc2nc3n(c(=O)c12)CCCS3
2. Cc1cccc(C(=O)N2CCCN(C(=O)c3cccc(C)c3)CC2)c1

Out:
1. 5.66
2. 17.7

====

# assay info: phenotypic screen on post-Golgi transport, primary screen (AID 739);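 further: yeast cells grown in 1536-well plates; yeast grown about 18 h at 30C before absorbance read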
# experimental context: post-Golgi transport phenotypic cell assay; at 10 µM
The campaign covered roughly 98,000 compounds. About 880 (0.9%) were called active. No stated cut-off is given here; in the data, active means inhibition above about 30%; inactive means the rest. The entries come from a sample that favours actives as a whole.
Parameter call: string, one of active, inactive

Study these solved cases before continuing.
CCCCC(=O)Nc1nc(C)c(-c2csc(Nc3ccc(Cl)cc3)n2)s1; active
CCOc1ccc(C(=O)NCCCN2CCCC2=O)cc1; inactive
Cc1ccccc1OCC(=O)Nc1ccc(N2CCN(C(=O)C(C)C)CC2)c(Cl)c1; inactive
Cn1ccs/c1=N\S(=O)(=O)c1ccc(C(C)(C)C)cc1; inactive
Cc1nnc(NC(=O)Nc2ccc(Cl)c(Cl)c2)s1; inactive

In: Could you check what this test reported for CCn1c2ccccc2c2cc(NC(=S)N3CCOCC3)ccc21 ?
Out: inactive

In: # outcome recorded in this test, key = CCCCCCC(=O)Nc1nc(C)c(-c2csc(Nc3cc(Cl)ccc3OC)n2)s1
Out: inactive

In: Assay outcome for CCc1nc2oc3ccccc3c(=O)c2c(=O)n1Cc1ccc(OC)cc1 : what was it?
Out: inactive

In: Check the results log: what was the call for N/C(=N\OC(=O)Nc1ccc(Cl)c(Cl)c1)c1ncc(C(F)(F)F)cc1Cl ?
Out: inactive

In: I would be grateful if you could indicate the recorded call for CC(=O)Nc1cc(C(=O)O)ccc1S(=O)(=O)c1ccc(Cl)cc1 .
Out: inactive

In: How was O=C1N=C2SCCN2/C1=C\c1c(Cl)cccc1Cl classified in this test?
Out: inactive

In: Which outcome was entered for the compound CCCOn1c(-n2nc(C)cc2C)nc2ccccc2c1=O in this test?
Out: inactive

In: # fetch the recorded call for O=C(Nc1ccccc1)c1nnsc1S(=O)(=O)c1ccc(Cl)cc1 here
Out: active
